// data source = patent US8268884B2

| molecule | melting point |
| --- | --- |
| O=C(O)[C@H](Cc1ccccc1)NC(=O)[C@H](O)[C@@H](O)C(=O)NCc1ccccc1 | 236 to 238 °C |
| COC(=O)CCCNC(=O)[C@H](O)[C@@H](O)C(=O)NCc1ccccc1 | 142 to 145 °C |
| O=C(O)CCCNC(=O)[C@H](O)[C@@H](O)C(=O)NCc1ccccc1 | 169 to 170 °C |
| O=C(O)c1ccc(CNC(=O)[C@H](O)[C@@H](O)C(=O)NCc2ccccc2)cc1 | 177 to 178 °C |
| COC(=O)C1CCC(CNC(=O)[C@H](O)[C@@H](O)C(=O)NCc2ccccc2)CC1 (stereo partly shown) | 153 to 154 °C |
| COC(=O)c1ccc(CNC(=O)[C@H](O)[C@@H](O)C(=O)NCc2ccccc2)cc1 | 205 to 206 °C |
| O=C(O)C1CCC(CNC(=O)[C@H](O)[C@@H](O)C(=O)NCc2ccccc2)CC1 (stereo partly shown) | 236 to 238 °C |

----------
target: BACE1 (Homo sapiens, UniProt P56817); test: Determination of BACE1-inhibiting activity (fluorescence substrate cleavage); format: biochemical; details: compound 100 μM; BACE1 1.0 U/ml; substrate 750 nM Rh-EVNLDAEFK-Quencher; sodium acetate buffer pH 4.5; 25° C., 60 minutes; read-out: Inhibitory rate (%)
Sequence (P56817 46-501): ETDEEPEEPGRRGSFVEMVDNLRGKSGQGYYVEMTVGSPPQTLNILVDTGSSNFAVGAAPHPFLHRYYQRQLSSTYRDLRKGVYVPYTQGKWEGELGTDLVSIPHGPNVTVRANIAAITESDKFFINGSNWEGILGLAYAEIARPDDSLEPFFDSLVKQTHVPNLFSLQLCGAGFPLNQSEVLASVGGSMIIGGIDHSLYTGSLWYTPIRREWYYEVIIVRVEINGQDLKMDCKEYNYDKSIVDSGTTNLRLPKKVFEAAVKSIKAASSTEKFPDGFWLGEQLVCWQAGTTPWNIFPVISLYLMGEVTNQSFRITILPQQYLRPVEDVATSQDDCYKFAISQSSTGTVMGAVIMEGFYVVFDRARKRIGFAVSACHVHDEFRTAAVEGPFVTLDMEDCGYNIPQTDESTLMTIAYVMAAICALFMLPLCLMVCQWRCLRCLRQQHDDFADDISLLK
quantity_kind: inhibition at 100 µM (%)

| compound | result_unit | data_value |
| --- | --- | --- |
| O=C(O)CCCNC(=O)[C@H](O)[C@@H](O)C(=O)NCc1ccccc1 [Example 14] | % | 22.5 |
| COC(=O)[C@H](Cc1ccccc1)NC(=O)[C@H](O)[C@@H](O)C(=O)Nc1ccc2ccccc2c1 [Example 19] | % | 35 |
| COC(=O)C1CCC(CNC(=O)[C@H](O)[C@@H](O)C(=O)Nc2ccc3ccccc3c2)CC1 (stereo partly drawn) [Example 18] | % | 22.3 |
| COC(=O)c1cc(NC(=O)[C@H](O)[C@@H](O)C(=O)NCc2ccccc2)cc(C(=O)OC)c1 [Example 16] | % | 26.5 |
| COC(=O)CCCNC(=O)[C@H](OC(C)=O)[C@@H](OC(C)=O)C(=O)Nc1ccc(Oc2ccccc2)cc1 [Example 3] | % | 39 |
| COC(=O)c1ccc(CNC(=O)[C@H](O)[C@@H](O)C(=O)Nc2ccc3ccccc3c2)cc1 [Example 17] | % | 45.3 |
